# key: entry, value: CC50 at 48 h
- Test details: Cytotoxicity against mouse J774.1 cells after 48 hrs
- Format: cell-based
- Experimental setup: read-out: ED50

* C[C@@H]1CC2(C[C@H](C)N1)C(=O)N(Cc1ccc([N+](=O)[O-])cc1)C(=O)N2Cc1ccccc1 (stereo partly drawn) | 42.4 µM
* COC(=O)C1C(=O)C(C(=O)OC)[C@H](c2ccccn2)N(Cc2ccccn2)[C@@H]1c1ccccn1 (stereo partly drawn) | 29.9 µM
* COC(=O)C1=C(O)C[C@H](c2ccccn2)N(Cc2ccc(C)cc2)[C@@H]1c1ccccn1 | 34.9 µM
* COC(=O)C1C(=O)C(C(=O)OC)[C@H](c2cccc([N+](=O)[O-])c2)N(Cc2ccc(OC)cc2)[C@@H]1c1cccc([N+](=O)[O-])c1 (stereo partly drawn) | > 100 µM
* Clc1cccc(Cl)c1CON=C1CCN(CCCc2ccccc2)CC1 | > 100 µM

CC50 at 48 h lookup needed for C=CCN1[C@H](c2ccccc2)C(C(=O)OC)C(=O)C(C(=O)OC)[C@@H]1c1ccccc1 (stereo partly drawn) , thanks.
> 100 µM

Ok, now COC(=O)C1C(=O)C(C(=O)OC)[C@H](c2cccc([N+](=O)[O-])c2)N(Cc2ccccc2)[C@@H]1c1cccc([N+](=O)[O-])c1 (stereo partly drawn)
> 100 µM

Another compound to look at: "COC(=O)C1=C(O)C[C@H](c2ccccn2)N(Cc2ccc(Cl)cc2)[C@@H]1c1ccccn1"
32.8 µM

###

Listed here: items and their measured ED50.
- System: Leishmania major
- Test details: Antileishmanial activity against Leishmania major MHOM/IL/81/FE/BNI infected in BALB/c mouse
- Type: functional

Some compounds with known ED50 results, for comparison:
- COC(=O)C1=C(O)C[C@H](c2ccccn2)N(Cc2ccc(C)cc2)[C@@H]1c1ccccn1: 83.83 µM
- CC[C@@H]1CC2(C[C@H](CC)N1)C(=O)N(CCc1ccccc1)C(=O)N2c1ccccc1 (stereo partly drawn): 41.1 µM
- Clc1cccc(Cl)c1CON=C1CCN(CCCc2ccccc2)CC1: >100 µM
- COC(=O)C1C(=O)C(C(=O)OC)[C@H](c2cccc([N+](=O)[O-])c2)N(Cc2ccc(C)cc2)[C@@H]1c1cccc([N+](=O)[O-])c1 (stereo partly drawn): >100 µM

So what does the record say about ED50 for COC(=O)C1C(=O)C(C(=O)OC)[C@H](c2cccc([N+](=O)[O-])c2)N(Cc2ccccc2)[C@@H]1c1cccc([N+](=O)[O-])c1 (stereo partly drawn) ?
>100 µM

Can you check "COC(=O)C1=C(O)C[C@H](c2ccccn2)N(Cc2ccc(OC)cc2)[C@@H]1c1ccccn1" next?
30 µM

Again, but for "C=CCN1[C@@H](c2ccccn2)C(C(=O)OC)=C(O)C[C@H]1c1ccccn1"
50 µM

Okay, and C[C@@H]1CC2(C[C@H](C)N1)C(=O)NC(=O)N2c1ccccc1 (stereo partly drawn) ?
>100 µM

###

Quick reference for ED50 among some compounds
- Tested on: Leishmania major
- Test details: Antileishmanial activity against Leishmania major MHOM/IL/81/FE/BNI infected in BALB/c mouse
- Type: functional

- COC(=O)C1=C(O)C[C@H](c2ccccn2)N(Cc2cccc(OC)c2)[C@@H]1c1ccccn1: >100 µM
- COC(=O)C1C(=O)C(C(=O)OC)[C@H](c2ccccn2)N(Cc2ccccc2)[C@@H]1c1ccccn1 (stereo not given in full): 55.99 µM
- C[C@@H]1CC2(C[C@H](C)N1)C(=O)N(Cc1ccc([N+](=O)[O-])cc1)C(=O)N2Cc1ccccc1 (stereo not given in full): >100 µM

Proceeding to the next compound to report its ED50.
Data request, read-out ED50, for COC(=O)C1C(=O)C(C(=O)OC)[C@H](c2ccc([N+](=O)[O-])cc2)N(Cc2ccccc2)[C@@H]1c1ccc([N+](=O)[O-])cc1 (stereo not given in full)
>100 µM

###

- System: Leishmania major
- Test details: Antileishmanial activity against Leishmania major MHOM/IL/81/FE/BNI infected in BALB/c mouse
- Assay type: functional
Recorded measurements of ED50, one per entry

Name the recorded ED50 for "COC(=O)C1=C(O)C[C@H](c2ccccn2)N(Cc2ccc(Cl)cc2)[C@@H]1c1ccccn1" .
87.93 µM

Lookup CCC[C@@H]1CC2(C[C@H](CCC)N1)C(=O)NC(=O)N2c1ccccc1 (stereo partly specified)
>100 µM

###

Each entry below carries its recorded ED50.
- Tested on: Leishmania major
- Test details: Antileishmanial activity against Leishmania major MHOM/IL/81/FE/BNI infected in BALB/c mouse
- Type: functional

Guide cases for ED50, answers given:
* C=CCN1[C@H](c2ccc([N+](=O)[O-])cc2)C(C(=O)OC)C(=O)C(C(=O)OC)[C@@H]1c1ccc([N+](=O)[O-])cc1 (some centres undefined) | >100 µM
* COC(=O)C1=C(O)C[C@@H](c2ccccn2)N(Cc2ccccc2)[C@H]1c1ccccn1 | 25.97 µM
* COC(=O)C1C(=O)C(C(=O)OC)[C@H](c2ccccn2)N(CCO)[C@@H]1c1ccccn1 (some centres undefined) | >100 µM

For the next question, use this compound.
Which value of ED50 has been reported for CC[C@@H]1CC2(C[C@H](CC)N1)C(=O)N(CCCc1ccccc1)C(=O)N2c1ccccc1 (some centres undefined) in the records?
>100 µM

Source of measurements: ChEMBL document CHEMBL1140714
